molecular target: D(2) dopamine receptor (Homo sapiens, UniProt P14416)
Sequence (P14416 whole entry): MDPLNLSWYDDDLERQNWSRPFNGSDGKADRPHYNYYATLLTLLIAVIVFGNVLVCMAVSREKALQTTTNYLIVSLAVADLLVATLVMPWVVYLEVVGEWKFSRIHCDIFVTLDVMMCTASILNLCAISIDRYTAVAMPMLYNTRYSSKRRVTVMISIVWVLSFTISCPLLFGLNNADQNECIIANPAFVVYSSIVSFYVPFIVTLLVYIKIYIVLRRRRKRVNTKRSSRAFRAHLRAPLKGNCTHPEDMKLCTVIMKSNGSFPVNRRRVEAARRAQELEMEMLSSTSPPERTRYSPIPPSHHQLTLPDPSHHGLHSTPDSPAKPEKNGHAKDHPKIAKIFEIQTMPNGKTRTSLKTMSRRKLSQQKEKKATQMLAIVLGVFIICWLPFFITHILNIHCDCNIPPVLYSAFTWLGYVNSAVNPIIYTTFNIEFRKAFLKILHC
ASSAY_READOUT: pKi
Scale: pKi equals -log10([C]), with [C] in mol/L.

Some solved entries appear below for comparison.
O=C(c1ccccc1)N1CCN(CCCN2CCN(c3ccccc3)CC2)CC1 5.68
N#Cc1cccnc1N1CCN(CCN2CCN(c3cccc(Cl)c3Cl)CC2)CC1 6.68
COc1ccccc1N1CCN(CCCN2CCN(C(=O)c3ccccn3)CC2)CC1 6.23

## Input Which value of pKi has been reported for Cn1nc(C(=O)N2CCN(CCN3CCN(c4cccc(Cl)c4Cl)CC3)CC2)c2ccccc21 in the records?
## Output 6.89

## Input Which value of pKi has been reported for N#Cc1cccnc1N1CCN(CCCCOc2ccc3c(c2)NC(=O)CC3)CC1 in the records?
## Output 5.68

---

molecular target: 5-hydroxytryptamine receptor 3A (Cavia porcellus, UniProt O70212); assay: Antagonist activity at 5-HT3 receptor in guinea-pig ileum assessed as inhibition of 5HT-induced contraction
Sequence (O70212 whole entry): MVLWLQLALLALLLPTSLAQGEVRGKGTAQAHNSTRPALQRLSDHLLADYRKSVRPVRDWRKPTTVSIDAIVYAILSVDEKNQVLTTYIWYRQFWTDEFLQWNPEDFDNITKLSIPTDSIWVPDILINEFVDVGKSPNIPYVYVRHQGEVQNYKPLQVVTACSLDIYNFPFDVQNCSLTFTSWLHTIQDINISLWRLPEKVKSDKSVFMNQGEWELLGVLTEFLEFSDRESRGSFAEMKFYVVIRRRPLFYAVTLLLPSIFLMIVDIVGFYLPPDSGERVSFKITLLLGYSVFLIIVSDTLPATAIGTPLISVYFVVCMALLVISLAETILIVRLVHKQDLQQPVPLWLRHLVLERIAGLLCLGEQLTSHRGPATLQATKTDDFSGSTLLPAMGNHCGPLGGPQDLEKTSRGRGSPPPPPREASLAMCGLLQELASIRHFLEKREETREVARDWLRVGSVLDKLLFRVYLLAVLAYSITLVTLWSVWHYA
IC50 for assorted molecules
Entry rule: numbers only, all in µM.

## Input Which value of IC50 has been reported for Cn1nc(C(=O)N2CCN(CCN3CCN(c4cccc(Cl)c4Cl)CC3)CC2)c2ccccc21 in the records?
## Output 1

## Input Which value of IC50 has been reported for COc1ccc(N2CCN(CCCN3CCN(c4ncccc4C#N)CC3)CC2)cc1 in the records?
## Output 3

---

assay: Cmax in male Wistar rat plasma at 20 mg/kg, ip; assay type: ADME, organism-based; set-up: dose 20 mg/kg, route ip
ASSAY_READOUT: Cmax (µM)
Entry rule: numbers only, all in µM.

## Input Which value of Cmax has been reported for COc1ccccc1N1CCN(CCCN2CCN(c3ncccc3C#N)CC2)CC1 in the records?
## Output 3.21

---

experiment: Permeability of compound at pH 7.4 by PAMPA assay
Papp for assorted compounds
Entry rule: numbers only, all in ×10⁻⁶ cm/s.

COMPOUND	ASSAY_READOUT	MEASURE_UNIT	NUMERIC_RESULT
COc1ccccc1N1CCN(CCCN2CCN(C(=O)c3ccccc3)CC2)CC1	Papp	×10⁻⁶ cm/s	11

## Input Which value of Papp has been reported for N#Cc1cccnc1N1CCN(CCCCOc2ccc3c(c2)NC(=O)CC3)CC1 in the records?
## Output 12

## Input Which value of Papp has been reported for O=C1CCc2ccc(OCCCCN3CCN(C(=O)c4ccccn4)CC3)cc2N1 in the records?
## Output 9.4

## Input Which value of Papp has been reported for COc1ccccc1N1CCN(CCN2CCN(c3ncccc3C#N)CC2)CC1 in the records?
## Output 14

## Input Which value of Papp has been reported for N#Cc1cccnc1N1CCN(CCCN2CCN(c3ccccc3)CC2)CC1 in the records?
## Output 25

## Input Which value of Papp has been reported for CN(C)CCCN1c2ccccc2Sc2ccc(Cl)cc21 [CHLORPROMAZINE] in the records?
## Output 9.6

## Input Which value of Papp has been reported for Cn1nc(C(=O)N2CCN(CCN3CCN(c4cccc(Cl)c4Cl)CC3)CC2)c2ccccc21 in the records?
## Output 6.8

## Input Which value of Papp has been reported for N#Cc1cccnc1N1CCN(CCCOc2ccc3c(c2)NC(=O)CC3)CC1 in the records?
## Output 14

## Input Which value of Papp has been reported for COc1ccc(N2CCN(CCCN3CCN(C(=O)c4ccccc4)CC3)CC2)cc1 in the records?
## Output 23

## Input Which value of Papp has been reported for N#Cc1cccnc1N1CCN(CCCN2CCN(c3cccc(Cl)c3Cl)CC2)CC1 in the records?
## Output 5.9

meta.source: ChEMBL document CHEMBL5143593
